Reported EC50 values follow for various compounds
target: alpha 2C adrenergic receptor (Homo sapiens); construct: expressed in transfected cells; host or cells: NIH-3T3 cells, transient cotransfection by calcium phosphate; test: RSAT (Receptor Selection and Amplification Technology) assay, alpha 2C; assay type: cell-based; conditions: NIH-3T3 cells cotransfected with receptor and Gq/i5
Sequence (P18825 whole entry, species assumed): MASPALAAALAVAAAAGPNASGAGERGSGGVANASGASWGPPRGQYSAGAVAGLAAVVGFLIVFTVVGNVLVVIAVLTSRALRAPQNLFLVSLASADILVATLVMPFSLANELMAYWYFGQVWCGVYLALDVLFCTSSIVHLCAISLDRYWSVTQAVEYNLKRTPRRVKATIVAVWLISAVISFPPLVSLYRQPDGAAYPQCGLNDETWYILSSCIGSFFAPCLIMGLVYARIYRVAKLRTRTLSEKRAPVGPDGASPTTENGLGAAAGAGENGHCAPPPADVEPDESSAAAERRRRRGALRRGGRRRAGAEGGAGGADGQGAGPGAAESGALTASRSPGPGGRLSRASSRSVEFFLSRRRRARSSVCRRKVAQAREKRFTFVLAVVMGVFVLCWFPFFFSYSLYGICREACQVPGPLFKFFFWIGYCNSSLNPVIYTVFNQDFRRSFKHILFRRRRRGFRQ
Field: numeric (nM). Do not append units.

Example results:
# smilesStructure, testValue
records = [
    ("Cc1cc(Cl)c(F)c(CNC(=S)NCCO)c1", 278),
    ("Cc1cc(Br)cc(CNC(=S)NCCO)c1F", 1490),
]

Here's the next entry for you.
What value of EC50 on alpha 2C adrenergic receptor (Homo sapiens) does Cc1cc(Br)c(F)c(CNC(=S)NCCO)c1 have?
819
